FYI, the data here is from ChEMBL document CHEMBL4411280.

Test system: MDCK
PROTOCOL SUMMARY: Cytotoxicity against MDCK cells at 50 uM after 40 hrs by CellTiter-Glo assay
Type: cell-based, Canis lupus familiaris
CONDITION INFO: dog
QUANTITY MEASURED: Activity

- INPUT SMILES: "C=C(C)[C@@H]1CC[C@]2(C(=O)NCCNC(=O)c3ccc(O)cc3O)CC[C@]3(C)[C@H](CC[C@@H]4[C@@]5(C)CC[C@H](O)C(C)(C)[C@@H]5CC[C@]43C)[C@@H]12"
  SYSTEM NAME: "MDCK"
  MEASUREMENT: "Toxic"
- INPUT SMILES: "C[C@H]1[C@H](C)CC[C@]2(C(=O)NCCNC(=O)c3cc(OCc4ccccc4)cc(OCc4ccccc4)c3)CC[C@]3(C)C(=CC[C@@H]4[C@@]5(C)CC[C@H](O)C(C)(C)[C@@H]5CC[C@]43C)[C@H]12"
  SYSTEM NAME: "MDCK"
  MEASUREMENT: "Non-Toxic"
- INPUT SMILES: "C=C(C)[C@@H]1CC[C@]2(C(=O)NCCNC(=O)c3ccccc3O)CC[C@]3(C)[C@H](CC[C@@H]4[C@@]5(C)CC[C@H](O)C(C)(C)[C@@H]5CC[C@]43C)[C@@H]12"
  SYSTEM NAME: "MDCK"
  MEASUREMENT: "Non-Toxic"
- INPUT SMILES: "CC1(C)CC[C@]2(C(=O)NCCNC(=O)/C=C/c3ccc(O)cc3)[C@H](O)C[C@]3(C)C(=CC[C@@H]4[C@@]5(C)CC[C@H](O)C(C)(C)[C@@H]5CC[C@]43C)[C@@H]2C1"
  SYSTEM NAME: "MDCK"
  MEASUREMENT: "Non-Toxic"
- INPUT SMILES: "CC1(C)CC[C@]2(C(=O)NCCNC(=O)c3ccc(OCc4ccccc4)cc3)[C@H](O)C[C@]3(C)C(=CC[C@@H]4[C@@]5(C)CC[C@H](O)C(C)(C)[C@@H]5CC[C@]43C)[C@@H]2C1"
  SYSTEM NAME: "MDCK"
  MEASUREMENT: "Non-Toxic"
- INPUT SMILES: "C=C(C)[C@@H]1CC[C@]2(C(=O)NCCNC(=O)c3cc(OCc4ccccc4)cc(OCc4ccccc4)c3)CC[C@]3(C)[C@H](CC[C@@H]4[C@@]5(C)CC[C@H](O)C(C)(C)[C@@H]5CC[C@]43C)[C@@H]12"
  SYSTEM NAME: "MDCK"
  MEASUREMENT: "Non-Toxic"
- INPUT SMILES: "C[C@H]1[C@H](C)CC[C@]2(C(=O)NCCNC(=O)c3ccc(O)cc3)CC[C@]3(C)C(=CC[C@@H]4[C@@]5(C)CC[C@H](O)C(C)(C)[C@@H]5CC[C@]43C)[C@H]12"
  SYSTEM NAME: "MDCK"
  MEASUREMENT: "Toxic"
- INPUT SMILES: "CC1(C)CC[C@]2(C(=O)NCCNC(=O)/C=C/c3ccccc3)[C@H](O)C[C@]3(C)C(=CC[C@@H]4[C@@]5(C)CC[C@H](O)C(C)(C)[C@@H]5CC[C@]43C)[C@@H]2C1"
  SYSTEM NAME: "MDCK"
  MEASUREMENT: "Toxic"
- INPUT SMILES: "C=C(C)[C@@H]1CC[C@]2(C(=O)NCCNC(=O)c3ccc(OCc4ccccc4)cc3)CC[C@]3(C)[C@H](CC[C@@H]4[C@@]5(C)CC[C@H](O)C(C)(C)[C@@H]5CC[C@]43C)[C@@H]12"
  SYSTEM NAME: "MDCK"
  MEASUREMENT: "Non-Toxic"
